src = paper PMC9865589

- targetOrSystem: AChE (Homo sapiens)
- Sequence (P22303 32-614): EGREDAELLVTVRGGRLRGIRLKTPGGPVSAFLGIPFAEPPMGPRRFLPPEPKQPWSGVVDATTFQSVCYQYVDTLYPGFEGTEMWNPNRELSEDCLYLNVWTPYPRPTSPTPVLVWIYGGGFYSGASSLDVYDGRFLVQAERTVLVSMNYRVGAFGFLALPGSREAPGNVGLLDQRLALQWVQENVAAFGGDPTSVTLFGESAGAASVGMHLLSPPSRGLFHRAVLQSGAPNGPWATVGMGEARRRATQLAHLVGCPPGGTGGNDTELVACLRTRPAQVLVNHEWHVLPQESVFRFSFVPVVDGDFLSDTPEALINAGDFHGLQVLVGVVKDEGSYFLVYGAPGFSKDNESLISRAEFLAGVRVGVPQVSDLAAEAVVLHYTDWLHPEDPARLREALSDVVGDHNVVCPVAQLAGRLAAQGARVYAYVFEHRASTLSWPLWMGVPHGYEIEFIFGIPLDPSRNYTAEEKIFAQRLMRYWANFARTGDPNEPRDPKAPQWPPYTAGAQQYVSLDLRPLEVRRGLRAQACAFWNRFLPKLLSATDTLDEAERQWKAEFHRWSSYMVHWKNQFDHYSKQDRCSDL
- testProtocol: biochemical
- Type: biochemical
- assaySetup: average ± SEM, triplicate
reportedEndpoint: IC50 (µM)

>>> recordedmeasurement("O=C1c2ccccc2C(=O)N1CSc1nnc(-c2cc(-c3ccccc3)nc3ccccc23)o1 [Compound 5a]")
1.4
>>> recordedmeasurement("FC(F)(F)c1ccccc1CSc1nnc(-c2cc(-c3ccccc3)nc3ccccc23)o1 [Compound 6c]")
4.38
>>> recordedmeasurement("O=C1c2ccccc2C(=O)N1CCCSc1nnc(-c2cc(-c3ccccc3)nc3ccccc23)o1 [Compound 5c]")
1.02
>>> recordedmeasurement("O=C1c2ccccc2C(=O)N1CCCCCSc1nnc(-c2cc(-c3ccccc3)nc3ccccc23)o1 [Compound 5e]")
1.29
>>> recordedmeasurement("c1ccc(CSc2nnc(-c3cc(-c4ccccc4)nc4ccccc34)o2)cc1 [Compound 6d]")
4.98
